Organism: Rattus norvegicus
Assay: DrugMatrix - Regimen: Daily Repeat
Type: toxicity, organism-based, Sprague-Dawley
Parameters: regimen Daily Repeat, gender Male, age 6-8 weeks
Details: in vivo, po, 0 mg/kg, 120 h, tissue Plasma, route oral GAVAGE, dose level Control, time 5 day, […]
Criterion: URIC ACID strictly less than 0.6 mg/dL. Met: satisfied. Not met: not satisfied.

Please review the entries below; each comes with its answer.
CCCCC(=O)N(Cc1ccc(-c2ccccc2-c2nnn[nH]2)cc1)[C@H](C(=O)O)C(C)C; not satisfied
c1ccoc1 [FURAN]; not satisfied
CC(C)c1c(C(=O)Nc2ccccc2)c(-c2ccccc2)c(-c2ccc(F)cc2)n1CC[C@@H](O)C[C@@H](O)CC(=O)O [ATORVASTATIN]; satisfied
CCc1ccc(CCOc2ccc(CC3SC(=O)NC3=O)cc2)nc1 (configuration not stated) [PIOGLITAZONE]; satisfied
CS(=O)(=O)Nc1ccc([N+](=O)[O-])cc1Oc1ccccc1 [NIMESULIDE]; not satisfied

# TODO verify URIC ACID < 0.6 mg/dL strictly for this compound: O=c1c(-c2ccc(O)cc2)coc2cc(O)cc(O)c12 [GENISTEIN]
satisfied
